Experiment: Cmax in C57BL6 mouse at 10 mg/kg, po
Type: ADME, organism-based
Design: route oral, dose 10 mg/kg
Conditions: in vivo
Value kind: Cmax (ng/mL)
Answer with a number only, understood to be in ng/mL.

Retrieve Cmax measured for CCN(C)C(=O)N1C[C@@H]2[C@H](C1)[C@H]2C(=O)N[C@H]1CCN(c2nccn3ccnc23)C1 and print it.
185

* * *

Assay: Lipophilicity, logD of the compound at pH 7.4 by shake flask method
Assay type: physicochemical
Details: buffer
Value kind: logD
No unit in the answer, only the number.

Retrieve logD measured for COc1ccc2cccnc2c1N1CCCN(Cc2csc(-c3ccccc3)n2)CC1 and print it.
3.4

Retrieve logD measured for CCc1ccn2ccnc2c1N1CCCN(CC2CCN(C(=O)[C@H]3C[C@@H]4CC[C@H]3O4)CC2)CC1 and print it.
0.7

* * *

Experiment: AUC infinity in C57BL6 mouse at 2 mg/kg, iv
Type: ADME, organism-based
Design: time infinity, route intravenous, dose 2 mg/kg
Conditions: in vivo
Value kind: AUC(0-inf) (ng·h/mL)
Answer with a number only, understood to be in ng·h/mL.

Retrieve AUC(0-inf) measured for CCN(C)C(=O)N1C[C@@H]2[C@H](C1)[C@H]2C(=O)N[C@H]1CCN(c2nccn3ccnc23)C1 and print it.
864

* * *

Test: AUC infinity in C57BL6 mouse at 10 mg/kg, po
Format: ADME, organism-based
Parameters: route oral, time infinity, dose 10 mg/kg
Conditions: in vivo
Value kind: AUC(0-inf) (ng·h/mL)
Answer with a number only, understood to be in ng·h/mL.

Retrieve AUC(0-inf) measured for CCN(C)C(=O)N1C[C@@H]2[C@H](C1)[C@H]2C(=O)N[C@H]1CCN(c2nccn3ccnc23)C1 and print it.
199

* * *

Test: Cmax in C57BL6 mouse at 5 mg/kg, sc
Format: ADME, organism-based
Set-up: route subcutaneous, dose 5 mg/kg
Details: in vivo
Value kind: Cmax

Retrieve Cmax measured for CCN(C)C(=O)N1C[C@@H]2[C@H](C1)[C@H]2C(=O)N[C@H]1CCN(c2nccn3ccnc23)C1 and print it.
1550 ng/mL

* * *

Test: Half life in C57BL6 mouse at 5 mg/kg, sc
Assay type: ADME, organism-based
Settings: in vivo
Value kind: half-life (min)
Answer with a number only, understood to be in min.

Retrieve half-life measured for CCN(C)C(=O)N1C[C@@H]2[C@H](C1)[C@H]2C(=O)N[C@H]1CCN(c2nccn3ccnc23)C1 and print it.
30

* * *

Experiment: Volume of distribution at steady state in C57BL6 mouse at 2 mg/kg, iv
Format: ADME, organism-based
Conditions: in vivo, read-out: Vdss
Value kind: Vd
Be sure to follow the number with its unit.

Retrieve Vd measured for CCN(C)C(=O)N1C[C@@H]2[C@H](C1)[C@H]2C(=O)N[C@H]1CCN(c2nccn3ccnc23)C1 and print it.
0.3 L/kg

* * *

Value kind: pKi
The value called pKi is obtained by taking minus log10 of the concentration in mol/L.

Fill in: pKi on Atypical chemokine receptor 3 (Mus musculus, UniProt P56485), entry CCN(C)C(=O)N1C[C@@H]2[C@H](C1)[C@H]2C(=O)N[C@H]1CCN(c2nccn3ccnc23)C1
Sequence (P56485 whole entry): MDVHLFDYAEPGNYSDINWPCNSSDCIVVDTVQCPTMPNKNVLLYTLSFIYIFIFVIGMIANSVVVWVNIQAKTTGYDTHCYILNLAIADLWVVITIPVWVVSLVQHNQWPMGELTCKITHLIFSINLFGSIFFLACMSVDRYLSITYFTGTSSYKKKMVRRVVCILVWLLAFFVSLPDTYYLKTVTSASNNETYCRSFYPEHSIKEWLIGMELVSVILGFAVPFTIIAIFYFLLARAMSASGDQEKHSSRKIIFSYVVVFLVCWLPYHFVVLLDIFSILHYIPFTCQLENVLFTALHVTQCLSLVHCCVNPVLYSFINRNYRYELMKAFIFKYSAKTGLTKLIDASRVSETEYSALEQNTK
6.81

* * *

Test: Tmax in C57BL6 mouse at 10 mg/kg, po
Format: ADME, organism-based
Settings: in vivo
Value kind: Tmax (min)
Answer with a number only, understood to be in min.

Retrieve Tmax measured for CCN(C)C(=O)N1C[C@@H]2[C@H](C1)[C@H]2C(=O)N[C@H]1CCN(c2nccn3ccnc23)C1 and print it.
4.8

* * *

Test: AUC infinity in C57BL6 mouse at 2 mg/kg, sc
Assay type: ADME, organism-based
Parameters: time infinity, route subcutaneous, dose 2 mg/kg
Details: in vivo
Value kind: AUC(0-inf) (ng·h/mL)
Answer with a number only, understood to be in ng·h/mL.

Retrieve AUC(0-inf) measured for CCN(C)C(=O)N1C[C@@H]2[C@H](C1)[C@H]2C(=O)N[C@H]1CCN(c2nccn3ccnc23)C1 and print it.
1530

* * *

Experiment: Bioavailability in C57BL6 mouse at 5 mg/kg, sc
Assay type: ADME, organism-based
Details: in vivo
Value kind: bioavailability

Retrieve bioavailability measured for CCN(C)C(=O)N1C[C@@H]2[C@H](C1)[C@H]2C(=O)N[C@H]1CCN(c2nccn3ccnc23)C1 and print it.
71%

* * *

Experiment: Oral bioavailability in C57BL6 mouse at 10 mg/kg
Type: ADME, organism-based
Conditions: in vivo
Value kind: bioavailability
Be sure to follow the number with its unit.

Retrieve bioavailability measured for CCN(C)C(=O)N1C[C@@H]2[C@H](C1)[C@H]2C(=O)N[C@H]1CCN(c2nccn3ccnc23)C1 and print it.
5%

* * *

Assay: Half life in C57BL6 mouse at 10 mg/kg, po
Assay type: ADME, organism-based
Conditions: in vivo
Value kind: half-life
Be sure to follow the number with its unit.

Retrieve half-life measured for CCN(C)C(=O)N1C[C@@H]2[C@H](C1)[C@H]2C(=O)N[C@H]1CCN(c2nccn3ccnc23)C1 and print it.
1.3 h
